- System: rhinovirus B14
- protocol_summary: Antiviral activity against HRV 14 infected in human HeLa cells assessed as reduction in plaque number after 3 days by neutral red assay
- Type: functional, organism-based
- experimental_conditions: Rhinovirus B, 72 h

smiles | experimental_system | IC50
O=c1c(/C=C\c2cccnc2)coc2ccc(Cl)cc12 | rhinovirus B14 | 10.1 µM
O=c1c(/C=C/c2ccncc2)coc2ccc(Cl)cc12 | rhinovirus B14 | 15.6 µM
C1=C(/C=C/c2ccccn2)COc2ccccc21 | rhinovirus B14 | 2.93 µM
O=c1c(/C=C/c2ccccn2)coc2ccccc12 | rhinovirus B14 | 7.08 µM
Clc1ccc2c(c1)C=C(/C=C/c1ccncc1)CO2 | rhinovirus B14 | 6.71 µM
C1=C(/C=C/c2cccnc2)COc2ccccc21 | rhinovirus B14 | 3.88 µM
Clc1ccc2c(c1)C=C(/C=C/c1ccccn1)CO2 | rhinovirus B14 | 8.96 µM
C1=C(/C=C/c2ccncc2)COc2ccccc21 | rhinovirus B14 | 3.03 µM
O=c1c(/C=C\c2cccnc2)coc2ccccc12 | rhinovirus B14 | 15.4 µM
C1=C(/C=C\c2cccnc2)COc2ccccc21 | rhinovirus B14 | 9.37 µM
Clc1ccc2c(c1)C=C(/C=C/c1cccnc1)CO2 | rhinovirus B14 | 4.27 µM
O=c1c(/C=C/c2ccncc2)coc2ccccc12 | rhinovirus B14 | 92.1 µM
C1=C(/C=C\c2ccncc2)COc2ccccc21 | rhinovirus B14 | 2.9 µM
O=c1c(/C=C/c2ccccn2)coc2ccc(Cl)cc12 | rhinovirus B14 | 5.1 µM

Entry source: ChEMBL document CHEMBL3102715
